biological target: recombinant factor H binding protein (FHbp) ID 1 (Neisseria meningitidis serogroup B …, UniProt Q9JXV4); assay: SPR
Sequence (Q9JXV4 20-274): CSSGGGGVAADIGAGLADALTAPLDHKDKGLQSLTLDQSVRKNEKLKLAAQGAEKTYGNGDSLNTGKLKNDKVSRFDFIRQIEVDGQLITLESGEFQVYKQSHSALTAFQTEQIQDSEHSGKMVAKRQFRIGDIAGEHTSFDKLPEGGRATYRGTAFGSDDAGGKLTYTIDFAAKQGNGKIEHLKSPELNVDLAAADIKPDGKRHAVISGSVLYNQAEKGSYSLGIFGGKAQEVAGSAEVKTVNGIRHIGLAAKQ
Could you please report measured Kd for the items listed next?
Answers are plain numbers, in nM.

For orientation, consider the following solved cases.
binder | metric_name | test_value
human anti-FHbp Fab 10C (Fab, V domains shown) VH: QVQLVESGGGVVQPGRSLRLSCPASGFTFSRYALHWVRQAPGKGLEWVAVISFDGSFKYYADSVKGRFSISRDNFKNTLYLQMNSLRAEDTAVYYCAKDDTLHASGWGGFDYWGQGALVTVSS VL: EIVLTQSPATLSLSPGERATLSCRASQSVTSYLTWYQHKPGQAPRLLIYHTSYRATGIPARFSGSGSGTDFTLSITSLEPEDFAVYYCQQRSNWPFTFGPGTKVDIK | Kd | 0.68
human anti-FHbp Fab 3C (Fab, V domains shown) VH: QVQLQESGPGLVKPSETLSLTCTVSGYSITRGYYWGWIRQPPGKGLEWIGGIYHSGTTYQNPSLRSRVTFSVDTSKNQFSLKLRSVTAADTAVYYCARDNYSSNLDYWGQGTMVTVSS VL: EIVLTQSPGTLSLSPGERATLSCRASQSVSSSYLAWYQQKAGQAPRLLIYGASSRATGIPERFSGSGSGTDFTLTISRLEPEDFAIYYCQQYGSSRFIFGPGTKVDIK | Kd | 130
human anti-FHbp Fab 8A (Fab, V domains shown) VH: QVQLVESGGGLVQPGGSLRLSCVTSGFTFRSYAMTWVRQAPGKGLEWVSSISHSGGSTKYADSVKGRLTISRDDSMDTLYLQMNSLRAEDTAIYYCAKDQISYPAASPLDYWGRGTLVTVSS VL: EIVLTQSPGTLSLSPGERATLSCRASQSFSSFSLAWYQQKPGQAPRLLIYAPSNRATGIADRFSGSGSGTDFTLTISRLEPEDFAVYYCQQYGSSPITFGQGTRLEIK | Kd | 1.04
human anti-FHbp Fab 5B (Fab, V domains shown) VH: EVQLLESGGGLVQPGGSLRLSCAASGYTFGSYAMTWVRQGPGKGLEWVSTILGSGADTYYADSVKGRFTISRDNSRNTLFMQLSSLRAEDTAVYYCAKLGYYDTWGQGTLVTVSS VL: EIVLTQSPATLSLSPGERATLSCRASQSIASYLYWYQQKPGQAPRLLIFDASNRATGTPARFSGSGSGTDFTLTISSLEPEDFAVYYCQQRNNWPRALTFGGGTKVEIK | Kd | 10.6

What Kd value was documented for this binder, human anti-FHbp Fab 6B (Fab, V domains shown) VH: EVQLVESGGGLVQPGGSLRLSCAASGFTFSSYAMSWVRQAPGKGLEWVSAISGSGGSSHYTDSVKGRFTISRDNSKNTLWLQMNSLRAEDTAIYYCAKTSGSYYYHYEIDVWGQGTTVTVSS VL: EIVLTQSPGTLSLSPGERATLSCRASQSVSSSYLAWYQQKPGQAPRLLIYGTSNRATGIPDRFSGSGSGTDFTLTVSRLEPEDFAVYYCQQYGSSPCSFGQGTKLELK ?
0.82
